Let's look at some binders and their measured EC50.
Biological target: T1, active human C1s (CompTech A104 C1s Enzyme) (human, UniProt P09871 16-688)
T1 construct: also called human active C1s; active C1s protein
T1 sequence (looked up): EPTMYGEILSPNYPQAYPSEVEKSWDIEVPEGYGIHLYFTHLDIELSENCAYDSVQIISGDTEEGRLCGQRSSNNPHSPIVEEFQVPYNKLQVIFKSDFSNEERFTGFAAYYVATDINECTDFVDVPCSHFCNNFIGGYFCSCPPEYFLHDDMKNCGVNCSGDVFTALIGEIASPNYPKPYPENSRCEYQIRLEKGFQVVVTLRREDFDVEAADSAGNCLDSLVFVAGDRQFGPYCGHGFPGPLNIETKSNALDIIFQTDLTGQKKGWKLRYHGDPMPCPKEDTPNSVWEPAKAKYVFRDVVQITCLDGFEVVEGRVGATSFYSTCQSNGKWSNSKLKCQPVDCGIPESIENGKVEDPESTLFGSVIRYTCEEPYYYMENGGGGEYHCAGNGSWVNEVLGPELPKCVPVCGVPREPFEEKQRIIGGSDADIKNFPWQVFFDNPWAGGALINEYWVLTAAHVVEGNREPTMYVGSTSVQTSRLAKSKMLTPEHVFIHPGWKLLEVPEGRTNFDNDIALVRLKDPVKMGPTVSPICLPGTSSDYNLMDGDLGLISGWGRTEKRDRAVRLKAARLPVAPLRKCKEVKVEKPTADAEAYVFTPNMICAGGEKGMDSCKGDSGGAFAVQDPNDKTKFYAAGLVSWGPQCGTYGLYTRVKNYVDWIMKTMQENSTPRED
Assay: ELISA, C1s coated on plate
MEASURED PARAMETER: EC50

1. Anti-C1s antibody hz2-7(H1L2) (antibody, V domains shown, Humanized, human IgG1 / kappa; also called hz2-7(1L2)) VH: EVQLLESGGGLVQPGGSLRLSCAASGFTFSNYFMNWVRQAPGKGLEWVSEIRLKFTNYATHYADSVKGRFTISRDDSKSTLYLQMNSLRAEDTAVYYCTRDYGSRNGYFDYWGQGTLVTVSS VL: DIVMTQTPLSLPVTPGEPASISCRSSKSLLHSNGNTFLYWFLQKPGQSPQLLIYRMSNLASGVPDRFSGSGSGTDFTLKISRVEAEDVGVYYCMQHLEYPYTFGGGTKLEIKR
0.013 µg/mL
2. Anti-C1s antibody 2-7 (antibody, human IgG1, kappa, V domains shown, the HC/LC entries may hold it too; also called clone 2-7) VH: EVKLEESGGGLVPPGGSMKLSCVASGFTFSNYFMNWVRQSPEKGLEWVAEIRLKFTNYATHYAESVEGRFTISRDDSKSSVYLQMNNLRAEDTGIYYCTRDYGSRNGYFDYWGQGTTLTVSS VL: DIVMTQAAPSVPVTPGESVSISCRSSKSLLHSNGNTFLYWFLQRPGQSPQLLIYRMSNLASGVPDRFSGSGSGTAFTLRVSRVEAEDVGIYYCMQHLEYPYTFGGGTKLEIKT
0.012 µg/mL
3. Anti-C1s antibody 2-8 (antibody, V domains shown, the HC/LC entries may hold it too; also called clone 2-8) VH: EVQLQQSGAELVRPGALVKLSCKASGFNIKEYYMHWVKQRPEQGLEWIGWIDPENGDTIYDPKFQGKASITADTSSNTAYLQLSSLTSEDTAVYYCARSRLFFAYWGQGTLVTVSA VL: DIVMTQSHKFMSTSVGDRVSFTCKASQDVRTAVDWYQQKPGQSPKLLIYSASYRYTGVPDRFTGTGSGTDFTFTISSVQAEDLAVYFCQQQYTTPYTFGGGTKLEIKT
0.012 µg/mL
4. Anti-C1s antibody hz2-8 (H1L2 G80A/T82A) (antibody, V domains shown, Humanized variant with G80A and T82A in HC CDR2 (already in the entry), human IgG1 / kappa) VH: QVQLVQSGAEVKKPGASVKVSCKASGFNIKEYYMHWVRQAPEQGLEWMGWIDPENADAIYAQKFQGRVTITADTSTNTAYMELSSLRSEDTAVYYCARSRLFFAYWGQGTLVTVSS VL: DIQMTQSPKSLSASVGDRVTITCRASQDVRTALDWYQQKPGQSPKLLIYSASYRYSGVPSRFSGSGSGTDFTLTISSLQPEDFATYYCQQQYTTPYTFGQGTKLEIKR
0.01 µg/mL
